biological target: BsCM_2 (chorismate mutase type II N-terminal domain of DAHPS) (Bacillus subtilis, UniProt P39912); assay: ITC; also Michaelis-Menten kinetics (Km […]); assay type: binding; design: gene aroA; N-terminal chorismate mutase-like domain of DAHPS (306 bp fragment); conditions: read-out: Dissociation constant, K D
Sequence (P39912 1-90): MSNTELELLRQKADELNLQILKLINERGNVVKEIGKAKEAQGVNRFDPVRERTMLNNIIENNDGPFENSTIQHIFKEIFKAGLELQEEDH
MEASUREMENT_NAME: Kd (µM)
The figure you give is taken to be in µM; do not add the unit.

Entry C=C(O[C@@H]1C=C(C(=O)O)C=C[C@H]1O)C(=O)O [chorismate] — recorded Kd = 725

###

target: BsCM_2 (chorismate mutase type II N-terminal domain of DAHPS) (Bacillus subtilis, UniProt P39912); test: crystal structure at […] Å (citrate from crystallization buffer) and ITC; format: binding; set-up: gene aroA; N-terminal chorismate mutase-like domain of DAHPS (306 bp fragment), homodimer
Where a name gives a salt, the structure may show the parent alone.
MEASUREMENT_NAME: Kd
Param answer (str): number followed by unit.

Record summary for O=C(O)CC(O)(CC(=O)O)C(=O)O [CIT, citrate] : reported Kd = 600 µM
